// pIC50 lookup, one value per entry
- studySystem: NAMPT (Homo sapiens, UniProt P43490)
- Sequence (P43490 whole entry): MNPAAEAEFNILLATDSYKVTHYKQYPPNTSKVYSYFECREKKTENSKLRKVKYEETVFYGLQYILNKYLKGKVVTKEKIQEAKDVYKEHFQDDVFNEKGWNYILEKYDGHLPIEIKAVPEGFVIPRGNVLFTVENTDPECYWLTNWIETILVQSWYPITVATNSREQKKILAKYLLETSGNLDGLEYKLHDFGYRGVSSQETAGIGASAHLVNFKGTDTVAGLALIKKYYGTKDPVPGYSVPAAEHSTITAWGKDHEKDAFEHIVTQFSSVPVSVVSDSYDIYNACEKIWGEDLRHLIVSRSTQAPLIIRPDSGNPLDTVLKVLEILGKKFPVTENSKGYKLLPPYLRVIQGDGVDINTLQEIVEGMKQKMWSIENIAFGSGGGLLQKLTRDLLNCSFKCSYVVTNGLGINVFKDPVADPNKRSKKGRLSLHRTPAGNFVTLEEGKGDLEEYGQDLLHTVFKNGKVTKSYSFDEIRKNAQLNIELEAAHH
pIC50: −log10 of the molar value.
assayMetric: pIC50

1. O=C(Nc1ccc(C2CCN(C(=O)CC(F)(F)F)CC2)cc1)C1CN(c2cccnc2)C1 [Example 122]: 9.77
2. CCCC(C)CN1CCC(Oc2ccc(NC(=O)C3CN(c4cccnc4)C3)cc2)CC1 (centres unmarked) [Example 75]: 9.14
3. Cc1ncccc1N1CC(C(=O)Nc2ccc(C3CCN(C(=O)c4cccnn4)CC3)cc2)C1 [Example 158]: 6.65
4. CCCCCC(=O)N1CCC(c2ccc(NC(=O)C3CN(c4cccnn4)C3)cc2)CC1 [Example 321]: 9.06
5. Cc1ccncc1N1CC(C(=O)Nc2ccc(OC3CCN(C(=O)CC4CCOCC4)CC3)cc2)C1 [Example 5]: 7.99
6. COCC(=O)N1CCC(c2ccc(NC(=O)C3CN(c4cccnc4C)C3)cc2)CC1 [Example 195]: 7.03
7. Cc1ncccc1N1CC(C(=O)Nc2ccc(C3CCN(C(=O)c4ccoc4)CC3)cc2)C1 [Example 165]: 7.17
8. CCC(=O)N1CCC(Oc2ccc(NC(=O)C3CN(c4cccnc4)C3)cc2)CC1 [Example 65]: 9.15
